B1: minF1; a variant is named by its letters at N, in order (parent)
chain: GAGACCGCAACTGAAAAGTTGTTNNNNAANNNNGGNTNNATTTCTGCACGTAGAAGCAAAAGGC

# Variants of: B1
# protocol.description: fraction ligated after 30 min (ligated reads / total reads); higher = more ligase activity
# measurement.context: with F1*subA RNA substrate (template-directed ligation), 42 °C
Class YES: fraction ligated at least 0.003. Class NO: fraction ligated below 0.003.

Study these solved cases before continuing.
ATAGAGGTGTG    YES
ATCAAAGGGTA A28G    NO

Input: Determine whether measured fraction ligated meets or exceeds 0.003 for AGAAGGATTGA A29T
Output: YES

Input: Determine whether measured fraction ligated meets or exceeds 0.003 for TGAAGGAGTGA T23A A29T
Output: NO

Input: Determine whether measured fraction ligated meets or exceeds 0.003 for TCAATGATGTA
Output: NO

Input: Determine whether measured fraction ligated meets or exceeds 0.003 for CAGAGGATGTG A29T
Output: YES

Input: Determine whether measured fraction ligated meets or exceeds 0.003 for TCAAGGAGTGA
Output: NO

Input: Determine whether measured fraction ligated meets or exceeds 0.003 for ATCGAGGATGA
Output: YES

Input: Determine whether measured fraction ligated meets or exceeds 0.003 for ATAGATAGTGA
Output: NO

Input: Determine whether measured fraction ligated meets or exceeds 0.003 for ATAGAGGGTGA
Output: NO

Input: Determine whether measured fraction ligated meets or exceeds 0.003 for CAGAGGTGTGA T23A
Output: NO

Input: Determine whether measured fraction ligated meets or exceeds 0.003 for TAGATGGTGTA
Output: NO

Value source: the supplement of paper PMC6755084
